- test: Drug uptake in rat liver at 5 mg/kg, po after 24 hrs
- Type: ADME, organism-based
- Parameters: dose 5 mg/kg, route oral
- study-conditions: read-out: Drug uptake
The entries below are paired with their reported concentration at 24 h.
Lab book: enter the figure in nM, no units written.

[[record]]
smiles_str = "COC(=O)N[C@@H](C(=O)N1CCC[C@H]1c1ncc(-c2ccc(-c3ccc(-c4cnc([C@@H]5CCCN5C(=O)[C@H]5CCCO5)[nH]4)cc3)cc2)[nH]1)c1ccccc1"
assay_result = 116

[[record]]
smiles_str = "COC(=O)N[C@H](C(=O)N1CCC[C@H]1c1nc(-c2ccc(-c3ccc(-c4c[nH]c([C@@H]5CCCN5C(=O)[C@@H](NC(=O)OC)C(C)C)n4)cc3)cc2)c[nH]1)C(C)C"
assay_result = 103

[[record]]
smiles_str = "CCN(CC)[C@@H](C(=O)N1CCC[C@H]1c1ncc(-c2ccc(-c3ccc(-c4cnc([C@@H]5CCCN5C(=O)[C@H](C)NC(=O)OC)[nH]4)cc3)cc2)[nH]1)c1ccccc1"
assay_result = 178


Now look at this entry.
Query :: Quick one: concentration at 24 h for CC[C@H](NC(=O)OC)C(=O)N1CCC[C@H]1c1ncc(-c2ccc(-c3ccc(-c4cnc([C@@H]5CCCN5C(=O)[C@@H](c5ccccc5)N(CC)CC)[nH]4)cc3)cc2)[nH]1 ?
Result :: 132
